target: HLA-A*02:03; assay: IEDB peptide-MHC binding, cellular MHC/competitive/fluorescence; bounds were set here for any values at or beyond the usual limits of such assays; conditions: source organism: Vaccinia virus WR
Listing of recorded IC50 by entry.
QUANTITY_NAME: IC50 (µM)

NVSRVVECLT :: 14.3
DTIESAKTKI :: 50.5
VQTLISLNSM :: 5.82
ELPYVGDTSM :: 14.2
LIQYRQQLEL :: 19.5
ITLILSNKL :: 17.1
PAHLINKLL :: 6.31
DISSFYWSL :: 6.87
TVDFTDCRTI :: 10.4
AIKSNNHLT :: 28.6
QTVDFTDCRT :: 54.3
YLSKEDRIIT :: 5.57
ATCALVSDCA :: 23.4
PLTLLIKTL :: 6.15

----------
Listing of recorded IC50 by entry.
biological target: HLA-A*02:01; assay: IEDB peptide-MHC binding, purified MHC/competitive/radioactivity; bounds were set here for any values at or beyond the usual limits of such assays; conditions: source organism: Vaccinia virus WR
QUANTITY_NAME: IC50 (µM)

SVNIWAIIPL :: 1.12
TAKSSFVCGI :: 1.13
AITDAAVAV :: 1.48
LTNEIYASI :: 0.864

----------
target: HLA-A*02:06; experiment: IEDB peptide-MHC binding, purified MHC/competitive/radioactivity; bounds were set here for any values at or beyond the usual limits of such assays; settings: source organism: Vaccinia virus WR
Listing of recorded IC50 by entry.
QUANTITY_NAME: IC50 (nM)

TIFDIVSKCI :: 701
FTNSQIFNII :: 1200
AIFNNRNLAA :: 774
ELTTVFIKYV :: 463
TILATLNTL :: 26
ALAEHISDSI :: 163
DISDVKVLAA :: 4610
LQQNNSFII :: 423
ALYSPPLISI :: 162
SIDHCSSFIV :: 30
PVVYHDDDNT :: 1360
IQYRQQLEL :: 41
CTNDIYCDEI :: 4760
VLEKKVCAIT :: 1680
RAFIYSIMET :: 578
YTRPEIDVL :: 154
HTNHSDISM :: 1200
IVSKCIVQSV :: 552

----------
target: HLA-A*02:01; experiment: IEDB peptide-MHC binding, purified MHC/competitive/radioactivity; bounds were set here for any values at or beyond the usual limits of such assays; settings: source organism: Vaccinia virus WR
IC50 under 30 nM gets satisfied, anything at or over 30 nM gets not satisfied.

FMASPENVI :: satisfied
VQLSNNKYVL :: not satisfied
FLHESDPMVI :: satisfied
IINSVSIILA :: not satisfied
NMCNSDVSV :: not satisfied
DALATFTVNI :: not satisfied
RVLYDEFVTI :: satisfied

----------
target: HLA-A*68:02; assay: IEDB peptide-MHC binding, cellular MHC/competitive/fluorescence; bounds were set here for any values at or beyond the usual limits of such assays; details: source organism: Vaccinia virus WR
IC50 under 20 µM gets true, anything at or over 20 µM gets false.

EIDVSEVKTL :: true
ALEPRKEIDV :: false
LITNTKSDNI :: false
KISVEKIKQT :: true
SVKYYGRST :: false
ALEQYGIENT :: false
VILPDKIDGL :: false
IIAVFDSKLI :: false
PLKDVERLQM :: false
GVLIAGIIL :: true
LIQYRQQLEL :: false
GIADIRDKYM :: true
DVEKRILNT :: false
NLERETGLSA :: false
FLARKGIDT :: false
VLTSVDIETA :: true
KTEHCDDFM :: false
LIFNVKSKLL :: false
QLVKDESIQL :: true
KIDILQMREI :: false
SLIYYQNEVT :: true
RLRYNLCKYL :: true
DQDTMLFASA :: true
IIYSKAGNI :: true
CVRLNNPVIL :: false
ILSNKLLYAA :: true
QLLKILDNL :: false
DVEKEKFVAT :: false
RISSSLDQT :: false
KVDDTFYYV :: false
ILANERYRSA :: false
IALCKVTVPT :: false
GAAITLVVI :: true
GLLDSIKMI :: false
RQVSVKLLI :: true

----------
Listing of recorded IC50 by entry.
target: HLA-A*02:01; test: IEDB peptide-MHC binding, purified MHC/competitive/radioactivity; bounds were set here for any values at or beyond the usual limits of such assays; details: source organism: Vaccinia virus WR
QUANTITY_NAME: IC50 (nM)

VVLDATNDGL :: 1450
SLLDEDSKI :: 99
MAFILGIIIT :: 663

----------
molecular target: HLA-A*68:02; assay: IEDB peptide-MHC binding, cellular MHC/competitive/fluorescence; bounds were set here for any values at or beyond the usual limits of such assays; conditions: source organism: Hepacivirus hominis
QUANTITY_NAME: IC50

KIMSGEKPSV :: ≥ 70 µM
FLLALLSCI :: ≥ 70 µM
LLGCIITSL :: ≥ 70 µM
LLGLLLLCV :: ≥ 70 µM
YLVTRNADV :: ≥ 70 µM
FMLCLLLLS :: ≥ 70 µM
ALDCQIYGA :: ≥ 70 µM
ILLSRCLWWT :: ≥ 70 µM
FLLALLSCLT :: ≥ 70 µM
LLYFILFFVA :: ≥ 70 µM
ALLSCLTTPA :: ≥ 70 µM

----------
Listing of recorded IC50 by entry.
molecular target: HLA-A*02:01; test: IEDB peptide-MHC binding, purified MHC/competitive/radioactivity; bounds were set here for any values at or beyond the usual limits of such assays; settings: source organism: Mammarenavirus choriomeningitidis
QUANTITY_NAME: IC50 (nM)

NISGYNFSL :: 642
LMDCIIFES :: 99
SLNQTVHSL :: 53
SLAADLEKL :: 45

----------
target: HLA-A*02:06; experiment: IEDB peptide-MHC binding, cellular MHC/competitive/fluorescence; bounds were set here for any values at or beyond the usual limits of such assays; settings: source organism: Vaccinia virus WR
Listing of recorded IC50 by entry.
QUANTITY_NAME: IC50 (µM)

YIENTNQGNI :: 6.2
IAVSVYGAIT :: 14.4
TAFFNTCKPT :: 33
PVDLVKSSFV :: 26.6
MISTYPGNT :: 25.7
RLLKNMKQCT :: 11.9
PLSPDTCLLA :: 19.9
DVCKKNLDL :: 16.3
IASAPQQLCT :: 8.31
AVSVYGAIT :: 14.2
QTGINNVQSL :: 53.6
LLDEPLSPDT :: 7.84
MAFILGIIIT :: 10.3
DTSPTKRCRL :: 44.6
TAIRAGYSI :: 7.69
EAFETQSGAL :: 15
KLFKRERDA :: 14.9
VAVNKSNKPL :: 17.6
LIFNVKSKLL :: 28.5
LTKDRKMLEL :: 20.8
TTELNIVDEI :: 21.4
ALKNSQAELT :: 27.2
YLSKEDRIIT :: 48.7
HLENDKIEDL :: 10.6
LAYYNSCML :: 21.5
VAEHRFENM :: 48.1
QLSNNKYVL :: 10.7
DIYDAVRAFL :: 12.1
ETLFGSYIT :: 15.4
NACDKHNKT :: 18.6

----------
target: HLA-A*02:01; test: IEDB peptide-MHC binding, cellular MHC/competitive/fluorescence; bounds were set here for any values at or beyond the usual limits of such assays; conditions: source organism: Vaccinia virus WR
pIC50: −log10 of the molar value.
Listing of recorded pIC50 by entry.
QUANTITY_NAME: pIC50

DTDIVNNFIT :: 5.10
RIVVYNPST :: 5.22
NACDKHNKT :: 4.65
NLYISDYKML :: 5.10
CTSEIQNVT :: 4.87
GTLDFFKQT :: 4.31
PLSPDTCLLA :: 5.16
GARVIWMDA :: 5.11
ELAYYNSCML :: 4.90
NVILSPPINA :: 5.14
PVNNNIVLHT :: 4.45
IIELPYVGDT :: 4.33
GVKIRTKIPL :: 4.90
AVAVAAASST :: 4.29
PLIISTDQDT :: 4.28
DVEKRILNTI :: 4.26
KTPLYYLSGT :: 4.35
NITTLLNET :: 4.41

----------
molecular target: HLA-A*02:02; assay: IEDB peptide-MHC binding, cellular MHC/competitive/fluorescence; bounds were set here for any values at or beyond the usual limits of such assays; settings: source organism: Vaccinia virus WR
pIC50: −log10 of the molar value.
Listing of recorded pIC50 by entry.
QUANTITY_NAME: pIC50

LQDIVNEHDI :: 5.12
FAFIDFSKST :: 4.93
GTKGKLYIAL :: 5.04
SIENKHQRRL :: 4.77
KADAVVADL :: 5.29
DLKHATDYIA :: 5.06
VASDVCKKNL :: 4.29
ATCALVSDCA :: 4.46
DIDLLFNEKL :: 4.95
QTVDFTDCRT :: 4.52
ELENKKVEYV :: 4.67
FISYNRHNDT :: 5.16
PLTGNNTITT :: 5.12
KLTKDRKML :: 4.61
YTLIYRQLT :: 5.19
DITNILGGV :: 5.01
DVEKRILNTI :: 4.68
GVLPEETNI :: 4.76
LVITYCLVT :: 5.16
TINALVYFST :: 4.85
LMSDNPKAST :: 5.05
ATQFNFNGHT :: 4.54
AIKSNNHLT :: 4.30
EVIGLTTHCT :: 4.98
CVRNLEELTT :: 4.90

The values you see were collected from the Immune Epitope Database (IEDB).
